- Experimental System: T1, fragment DIR-II (last 27 amino acids of the sequence encoded by the retained intron of DIR) (human)
- T1 construct: also called target fragment DIR-II
- T1 peptide: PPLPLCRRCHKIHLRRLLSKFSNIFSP
- Experiment: ELISA, DIR-II coated; mAb (1 mg/mL) diluted 1:1458k
Overview of recorded absorbance at 450 nm for various binders

Binder	absorbance at 450 nm
DIR antibody IR-II-2 (antibody, V domains shown, Monoclonal antibody) VH: EVQLQQSGAELMKPGASVKISCKATGYTFSSYWIEWVKQRPGHGLEWIGEILPGSGTTNYNEKFKGKATFTVDTSSNTAYMQLSSLTSEDSAVYYCARSGVITARGDYYAMDYWGQGTSVTVSS VL: DIVMTQSPASLAVSLGQRATISCKASQSVDYDGDSYMNWYQQKPGQPPKLLIYAASNLDSGIPARFSGSGSGTDFTLNIHPVEEEDAATYYCQQSNEDPRTFGGGTKLEIK	0.0839 absorbance (450 nm)

Need absorbance at 450 nm, item DIR antibody IR-II-9 (antibody, V domains shown, Monoclonal antibody) VH: QVQLQQSGAELMKPGASVKISCKATGYTFSRYWIEWIKQRPGHGLEWIGEILPGSYYSTNSNEKFKGKATFTADTSSNTAYMQLSSLTSEDSAVYYCARSGVITTRGDYFAMDYWGHGTSVTVSS VL: DIELTQSPASLAVSLGQRATISCKASQSVDYDGESYMNWYQQKPGQPPKLLIYAASNLESGIPARFSGSGSGTDFTLNIHPVEEEDAATYYCQQSYDDPRAFGGGTKLEIK 0.169 absorbance (450 nm)
